Biological target: T1, rHuman Notch-1/Fc Chimera, CF (R&D Systems Cat#3647-TK) (human, UniProt P46531 19-526)
T1 construct: Bought recombinant protein
Assay: ECL multispot (MSD) binding assay, antigen spotted on plate;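 note: purified Fab incubated 1 h at 20 °C on antigen spots, detected with TAG-labelled antibody, electrochemiluminescence compared with each well's blank, signal-to-blank ratio ≥4 counted as hit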
Answer each item with its documented ECL signal.
Give the value as a plain number.

Entry Fab VH1-46_IGHD6-6*01_IGHJ1*01 S102A/S103P/S104F/H111F (APFF) & L6_IGKJ1*01 S31H (Fab, V domains shown, Tested as Fab (CH1 with His6/Flag tags, kappa CL) made in E. coli; also called APFF / S31H) VH: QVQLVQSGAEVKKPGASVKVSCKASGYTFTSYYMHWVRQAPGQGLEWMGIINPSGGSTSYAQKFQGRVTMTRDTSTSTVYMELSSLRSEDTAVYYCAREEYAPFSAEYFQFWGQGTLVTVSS VL: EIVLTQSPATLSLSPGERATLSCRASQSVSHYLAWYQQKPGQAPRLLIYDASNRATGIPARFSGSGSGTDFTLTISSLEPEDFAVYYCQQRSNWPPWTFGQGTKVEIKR : reported ECL signal = ? 421

Entry Fab VH1-46_IGHD6-6*01_IGHJ1*01 S102A/S103P/S104F/H111F (APFF) & L6_IGKJ1*01 S31P (Fab, V domains shown, Tested as Fab (CH1 with His6/Flag tags, kappa CL) made in E. coli; also called APFF / S31P) VH: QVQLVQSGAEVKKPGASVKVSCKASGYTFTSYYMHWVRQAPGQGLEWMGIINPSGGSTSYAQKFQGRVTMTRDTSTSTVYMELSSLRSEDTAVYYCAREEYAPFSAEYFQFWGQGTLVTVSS VL: EIVLTQSPATLSLSPGERATLSCRASQSVSPYLAWYQQKPGQAPRLLIYDASNRATGIPARFSGSGSGTDFTLTISSLEPEDFAVYYCQQRSNWPPWTFGQGTKVEIKR : reported ECL signal = ? 461

Entry Fab VH1-46_IGHD6-6*01_IGHJ1*01 S102A/S103P/S104F/H111F (APFF) & L6_IGKJ1*01 S31M (Fab, V domains shown, Tested as Fab (CH1 with His6/Flag tags, kappa CL) made in E. coli; also called APFF / S31M) VH: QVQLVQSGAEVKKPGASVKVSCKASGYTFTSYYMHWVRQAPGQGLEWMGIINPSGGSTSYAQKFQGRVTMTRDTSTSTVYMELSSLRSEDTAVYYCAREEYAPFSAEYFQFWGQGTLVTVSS VL: EIVLTQSPATLSLSPGERATLSCRASQSVSMYLAWYQQKPGQAPRLLIYDASNRATGIPARFSGSGSGTDFTLTISSLEPEDFAVYYCQQRSNWPPWTFGQGTKVEIKR : reported ECL signal = ? 474

Entry Fab VH1-46_IGHD6-6*01_IGHJ1*01 S102A/S103P/S104F/H111F (APFF) & L6_IGKJ1*01 S31L (Fab, V domains shown, Tested as Fab (CH1 with His6/Flag tags, kappa CL) made in E. coli; also called APFF / S31L) VH: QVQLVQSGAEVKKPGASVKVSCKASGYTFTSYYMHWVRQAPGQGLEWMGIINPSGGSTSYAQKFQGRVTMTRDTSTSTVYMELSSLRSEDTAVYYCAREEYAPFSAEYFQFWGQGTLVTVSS VL: EIVLTQSPATLSLSPGERATLSCRASQSVSLYLAWYQQKPGQAPRLLIYDASNRATGIPARFSGSGSGTDFTLTISSLEPEDFAVYYCQQRSNWPPWTFGQGTKVEIKR : reported ECL signal = ? 365

Entry Fab VH1-46_IGHD6-6*01_IGHJ1*01 S102A/S103P/S104F/H111F (APFF) & L6_IGKJ1*01 S31A (Fab, V domains shown, Tested as Fab (CH1 with His6/Flag tags, kappa CL) made in E. coli; also called APFF / S31A) VH: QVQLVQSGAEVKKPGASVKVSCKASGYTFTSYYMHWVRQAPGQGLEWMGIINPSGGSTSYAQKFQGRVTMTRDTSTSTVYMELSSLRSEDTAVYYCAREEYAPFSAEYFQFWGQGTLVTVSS VL: EIVLTQSPATLSLSPGERATLSCRASQSVSAYLAWYQQKPGQAPRLLIYDASNRATGIPARFSGSGSGTDFTLTISSLEPEDFAVYYCQQRSNWPPWTFGQGTKVEIKR : reported ECL signal = ? 424
